# Test system: MDA-MB-468 breast
# procedure summary: NCI-60 one-dose screen, 48 h
# experimental context: 10 µM unless noted
This is part of a sample that, as a whole, favours compounds with a hit. Of some 83,000 tested, about 20% had one in any assay. The source made the active and inactive calls. How the source made its calls: active means growth percent below 10; inactive means the rest.
The reply should be one of these categories: class 1 = active, class 0 = inactive

Below, 5 compounds whose answers are already recorded.
CCN(CCO)C(Cc1ccccc1)c1ccccc1 (stereo unspecified) | class 0
C1CCC([PH+](C2CCCCC2)C2CCCCC2[PH+](C2CCCCC2)C2CCCCC2)CC1.[Au].[CH-]1CCCCC1CC1CCCC[N-]1 (stereo unspecified) | class 1
O=P(O)(Nc1ccccc1)Nc1ccccc1 | class 0
COc1ccc(C2=NN(c3ccccc3)C(c3sc(N(CCCl)CCCl)nc3Cl)C2)cc1 (stereo unspecified) | class 0
CCCCCCCC[n+]1ccc2ccccc2c1 | class 1

How did this test come out for CNC(=O)Oc1ccc(C(C)(C)C)cc1OC(=O)NC ? class 0
